Target Or System: BuChE (Homo sapiens, UniProt P06276)
Sequence (P06276 29-602): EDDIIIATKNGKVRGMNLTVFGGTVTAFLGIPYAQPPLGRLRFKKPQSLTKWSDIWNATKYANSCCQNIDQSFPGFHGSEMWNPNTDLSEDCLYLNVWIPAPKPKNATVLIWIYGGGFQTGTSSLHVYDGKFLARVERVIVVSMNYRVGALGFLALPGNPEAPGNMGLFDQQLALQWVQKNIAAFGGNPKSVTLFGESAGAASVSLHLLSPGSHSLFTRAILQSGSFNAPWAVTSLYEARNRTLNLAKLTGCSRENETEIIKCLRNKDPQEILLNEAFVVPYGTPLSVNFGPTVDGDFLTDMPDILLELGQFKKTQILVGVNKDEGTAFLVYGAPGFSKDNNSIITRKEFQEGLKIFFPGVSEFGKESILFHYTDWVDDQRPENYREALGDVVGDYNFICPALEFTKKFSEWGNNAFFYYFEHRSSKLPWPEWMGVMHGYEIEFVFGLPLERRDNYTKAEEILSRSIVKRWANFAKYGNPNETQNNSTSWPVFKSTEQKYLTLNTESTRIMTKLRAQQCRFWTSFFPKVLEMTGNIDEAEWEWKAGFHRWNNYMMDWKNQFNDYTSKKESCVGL
Assay Details: Synergism of antipsychotics with donepezil/rivastigmine (binary mixtures), BuChE;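 further: combination index derived by median-effect analysis of combined drug effects on the cholinesterase, with values below 1 meaning synergism, exactly 1 additivity and above 1 antagonism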
Condition Label: rivastigmine 0.05 μmol/L + antipsychotic at TPCmax; ComboSyn
Assay Endpoint: CI (combination index), BuChE

[
  {
    "Molecule": "O=C(CCCN1CCC(n2c(O)nc3ccccc32)CC1)c1ccc(F)cc1 [Benperidol, benperidol]",
    "Target Or System": "BuChE (Homo sapiens, UniProt P06276)",
    "Assay Endpoint": "CI (combination index), BuChE",
    "Result Qualifier": "=",
    "Result Number": 0.27
  },
  {
    "Molecule": "O=c1[nH]c2ccccc2n1C1CCN(CCCC(c2ccc(F)cc2)c2ccc(F)cc2)CC1 [Pimozide, pimozide]",
    "Target Or System": "BuChE (Homo sapiens, UniProt P06276)",
    "Assay Endpoint": "CI (combination index), BuChE",
    "Result Qualifier": ">",
    "Result Number": 2.50
  },
  {
    "Molecule": "O=C(CCCN1CCC(O)(c2ccc(Br)cc2)CC1)c1ccc(F)cc1 [Bromperidol, bromperidol]",
    "Target Or System": "BuChE (Homo sapiens, UniProt P06276)",
    "Assay Endpoint": "CI (combination index), BuChE",
    "Result Qualifier": "=",
    "Result Number": 0.18
  },
  {
    "Molecule": "OCCOCCN1CCN(C2=Nc3ccccc3Sc3ccccc32)CC1 [Quetiapine, quetiapine]",
    "Target Or System": "BuChE (Homo sapiens, UniProt P06276)",
    "Assay Endpoint": "CI (combination index), BuChE",
    "Result Qualifier": "=",
    "Result Number": 2.24
  },
  {
    "Molecule": "O=C(CCCN1CCC(O)(c2ccc(Cl)cc2)CC1)c1ccc(F)cc1 [Haloperidol, haloperidol]",
    "Target Or System": "BuChE (Homo sapiens, UniProt P06276)",
    "Assay Endpoint": "CI (combination index), BuChE",
    "Result Qualifier": "=",
    "Result Number": 0.61
  },
  {
    "Molecule": "OC1(c2ccc(Cl)c(C(F)(F)F)c2)CCN(CCCC(c2ccc(F)cc2)c2ccc(F)cc2)CC1 [Penfluridol, penfluridol]",
    "Target Or System": "BuChE (Homo sapiens, UniProt P06276)",
    "Assay Endpoint": "CI (combination index), BuChE",
    "Result Qualifier": "=",
    "Result Number": 0.64
  }
]

* * *

Target Or System: AChE (Homo sapiens)
Assay Details: Synergism of antipsychotics with donepezil/rivastigmine (binary mixtures), AChE
Condition Label: rivastigmine 15 μmol/L + antipsychotic at TPCmax; ComboSyn

[
  {
    "Compound": "O=C(CCCN1CCC(O)(c2ccc(Cl)cc2)CC1)c1ccc(F)cc1",
    "CI (combination index), AChE": 0.60
  },
  {
    "Compound": "O=C(CCCN1CCC(O)(c2ccc(Br)cc2)CC1)c1ccc(F)cc1",
    "CI (combination index), AChE": 0.46
  },
  {
    "Compound": "OC1(c2ccc(Cl)c(C(F)(F)F)c2)CCN(CCCC(c2ccc(F)cc2)c2ccc(F)cc2)CC1",
    "CI (combination index), AChE": 0.73
  },
  {
    "Compound": "O=C(CCCN1CCC(n2c(O)nc3ccccc32)CC1)c1ccc(F)cc1",
    "CI (combination index), AChE": 0.48
  },
  {
    "Compound": "O=c1[nH]c2ccccc2n1C1CCN(CCCC(c2ccc(F)cc2)c2ccc(F)cc2)CC1 [Pimozide, pimozide]",
    "CI (combination index), AChE": 0.38
  }
]

* * *

Target Or System: AChE (Homo sapiens, UniProt P22303)
Sequence (P22303 32-617 isoform P22303-2 limits assumed): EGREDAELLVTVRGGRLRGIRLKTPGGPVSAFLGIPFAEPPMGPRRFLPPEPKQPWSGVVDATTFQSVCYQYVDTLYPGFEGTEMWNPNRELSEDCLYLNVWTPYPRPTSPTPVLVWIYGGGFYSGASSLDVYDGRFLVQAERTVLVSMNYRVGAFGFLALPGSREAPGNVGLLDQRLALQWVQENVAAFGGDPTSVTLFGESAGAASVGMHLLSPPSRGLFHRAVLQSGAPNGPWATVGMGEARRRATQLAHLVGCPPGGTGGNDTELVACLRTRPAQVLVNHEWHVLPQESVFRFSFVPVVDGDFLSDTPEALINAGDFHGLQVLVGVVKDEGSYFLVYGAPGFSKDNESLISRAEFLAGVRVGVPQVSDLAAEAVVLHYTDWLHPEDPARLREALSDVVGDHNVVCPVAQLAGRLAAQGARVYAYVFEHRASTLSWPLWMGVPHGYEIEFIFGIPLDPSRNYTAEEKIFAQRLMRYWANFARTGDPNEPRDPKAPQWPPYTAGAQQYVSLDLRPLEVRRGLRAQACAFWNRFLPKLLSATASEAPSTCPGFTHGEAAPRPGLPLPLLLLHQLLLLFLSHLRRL
Assay Details: Synergism of antipsychotics with donepezil/rivastigmine (binary mixtures), AChE;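 further: antipsychotic concentration kept fixed across all measurements, selected from estimated therapeutic plasma levels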
Condition Label: rivastigmine 10 μmol/L + antipsychotic at TPCmax; ComboSyn

[
  {
    "Molecule": "O=C(CCCN1CCC(O)(c2ccc(Cl)cc2)CC1)c1ccc(F)cc1",
    "CI (combination index), AChE": 0.55
  },
  {
    "Molecule": "O=c1[nH]c2ccccc2n1C1CCN(CCCC(c2ccc(F)cc2)c2ccc(F)cc2)CC1 [Pimozide, pimozide]",
    "CI (combination index), AChE": 0.37
  },
  {
    "Molecule": "O=C(CCCN1CCC(n2c(O)nc3ccccc32)CC1)c1ccc(F)cc1",
    "CI (combination index), AChE": 0.44
  },
  {
    "Molecule": "OC1(c2ccc(Cl)c(C(F)(F)F)c2)CCN(CCCC(c2ccc(F)cc2)c2ccc(F)cc2)CC1",
    "CI (combination index), AChE": 0.75
  },
  {
    "Molecule": "O=C(CCCN1CCC(O)(c2ccc(Br)cc2)CC1)c1ccc(F)cc1",
    "CI (combination index), AChE": 0.38
  }
]

* * *

Test system: HUVEC cells
Assay Details: WST-1 viability under AAPH-induced oxidative stress, HUVEC
Type: cell-based, human
Condition Label: TPC (bromperidol 25 μg/L, quetiapine 400 μg/L); AAPH 17.5 mmol/L; relative to pure medium control
Assay Endpoint: viability of HUVEC under AAPH (%)

[
  {
    "Molecule": "OC1(c2ccc(Cl)c(C(F)(F)F)c2)CCN(CCCC(c2ccc(F)cc2)c2ccc(F)cc2)CC1 [Penfluridol, penfluridol]",
    "Target Or System": "HUVEC cells",
    "Assay Endpoint": "viability of HUVEC under AAPH",
    "Result Number": 82.9
  },
  {
    "Molecule": "OCCOCCN1CCN(C2=Nc3ccccc3Sc3ccccc32)CC1 [Quetiapine, quetiapine]",
    "Target Or System": "HUVEC cells",
    "Assay Endpoint": "viability of HUVEC under AAPH",
    "Result Number": 74.9
  },
  {
    "Molecule": "O=C(CCCN1CCC(O)(c2ccc(Br)cc2)CC1)c1ccc(F)cc1 [Bromperidol, bromperidol]",
    "Target Or System": "HUVEC cells",
    "Assay Endpoint": "viability of HUVEC under AAPH",
    "Result Number": 82.5
  },
  {
    "Molecule": "O=c1[nH]c2ccccc2n1C1CCN(CCCC(c2ccc(F)cc2)c2ccc(F)cc2)CC1 [Pimozide, pimozide]",
    "Target Or System": "HUVEC cells",
    "Assay Endpoint": "viability of HUVEC under AAPH",
    "Result Number": 65.2
  }
]

* * *

# CI (combination index), AChE listing for each entry below
Target Or System: UniProtKB P22303
Assay Details: Synergism of antipsychotics with donepezil/rivastigmine (binary mixtures), AChE
Condition Label: rivastigmine 100 μmol/L + antipsychotic at TPCmax; ComboSyn

[
  {
    "Compound": "O=C(CCCN1CCC(n2c(O)nc3ccccc32)CC1)c1ccc(F)cc1 [Benperidol, benperidol]",
    "CI (combination index), AChE": 0.65
  },
  {
    "Compound": "O=c1[nH]c2ccccc2n1C1CCN(CCCC(c2ccc(F)cc2)c2ccc(F)cc2)CC1 [Pimozide, pimozide]",
    "CI (combination index), AChE": 0.65
  },
  {
    "Compound": "O=C(CCCN1CCC(O)(c2ccc(Cl)cc2)CC1)c1ccc(F)cc1 [Haloperidol, haloperidol]",
    "CI (combination index), AChE": 0.82
  },
  {
    "Compound": "O=C(CCCN1CCC(O)(c2ccc(Br)cc2)CC1)c1ccc(F)cc1 [Bromperidol, bromperidol]",
    "CI (combination index), AChE": 0.60
  },
  {
    "Compound": "OC1(c2ccc(Cl)c(C(F)(F)F)c2)CCN(CCCC(c2ccc(F)cc2)c2ccc(F)cc2)CC1 [Penfluridol, penfluridol]",
    "CI (combination index), AChE": 1.06
  }
]

* * *

Target Or System: AChE (Homo sapiens)
Assay Details: Synergism of antipsychotics with donepezil/rivastigmine (binary mixtures), AChE
Condition Label: donepezil 0.05 μmol/L + antipsychotic at TPCmax; ComboSyn
Assay Endpoint: CI (combination index), AChE

[
  {
    "Molecule": "OC1(c2ccc(Cl)c(C(F)(F)F)c2)CCN(CCCC(c2ccc(F)cc2)c2ccc(F)cc2)CC1",
    "Result Number": 0.89
  },
  {
    "Molecule": "O=C(CCCN1CCC(O)(c2ccc(Br)cc2)CC1)c1ccc(F)cc1",
    "Result Number": 0.81
  },
  {
    "Molecule": "O=C(CCCN1CCC(O)(c2ccc(Cl)cc2)CC1)c1ccc(F)cc1",
    "Result Number": 0.37
  },
  {
    "Molecule": "O=c1[nH]c2ccccc2n1C1CCN(CCCC(c2ccc(F)cc2)c2ccc(F)cc2)CC1 [Pimozide, pimozide]",
    "Result Number": 0.65
  },
  {
    "Molecule": "O=C(CCCN1CCC(n2c(O)nc3ccccc32)CC1)c1ccc(F)cc1",
    "Result Number": 1.02
  }
]
